Test system: Staphylococcus aureus
ASSAY_INFO: Antibacterial activity against methicillin resistant Staphylococcus aureus USA300 FPR3757 assessed as inhibition of bacterial growth incubated for 20 to 24 hrs by microbroth serial dilution method
Format: functional
STATED_CONDITIONS: time 20-24 hrs, read-out: MIC100
MEASURED_PARAMETER: MIC (µg/mL)
Express it in µg/mL; write the number only.

Entry C=C[C@]1(C)C[C@@H](OC(=O)CSC(C)(C)CNC(=O)[C@H](N)C(C)C)[C@]2(C)[C@H](C)CC[C@]3(CCC(=O)[C@H]32)[C@@H](C)[C@@H]1O under Staphylococcus aureus had MIC of 0.06

Entry C=C[C@]1(C)C[C@@H](OC(=O)Cn2cc(-c3cccc(NC(=O)c4ccccc4)c3)nn2)[C@]2(C)[C@H](C)CC[C@]3(CCC(=O)[C@H]32)[C@@H](C)[C@@H]1O under Staphylococcus aureus had MIC of 0.25

Entry C=C[C@]1(C)C[C@@H](OC(=O)Cn2cc(-c3ccc(C(=O)c4ccc5c(N)ncnn45)cn3)nn2)[C@]2(C)[C@H](C)CC[C@]3(CCC(=O)[C@H]32)[C@@H](C)[C@@H]1O under Staphylococcus aureus had MIC of 0.06

Entry C=C[C@]1(C)C[C@@H](OC(=O)Cn2cc(-c3cccc(NC(=O)c4ccc(OC)nc4)c3)nn2)[C@]2(C)[C@H](C)CC[C@]3(CCC(=O)[C@H]32)[C@@H](C)[C@@H]1O under Staphylococcus aureus had MIC of 0.12

Entry C=C[C@]1(C)C[C@@H](OC(=O)Cn2cc(-c3cncc(NC(=O)c4c[nH]c(=O)cn4)c3)nn2)[C@]2(C)[C@H](C)CC[C@]3(CCC(=O)[C@H]32)[C@@H](C)[C@@H]1O under Staphylococcus aureus had MIC of 1

Entry C=C[C@]1(C)C[C@@H](OC(=O)Cn2cc(-c3ccc(Cn4ccc5c(N)ncnc54)nc3)nn2)[C@]2(C)[C@H](C)CC[C@]3(CCC(=O)[C@H]32)[C@@H](C)[C@@H]1O under Staphylococcus aureus had MIC of 0.015

Entry C=C[C@]1(C)C[C@@H](OC(=O)Cn2cc(-c3ccc(Cn4ccc5c(N)ncnc54)c(OC)c3)nn2)[C@]2(C)[C@H](C)CC[C@]3(CCC(=O)[C@H]32)[C@@H](C)[C@@H]1O under Staphylococcus aureus had MIC of 0.12

Entry C=C[C@]1(C)C[C@@H](OC(=O)Cn2cc(-c3cccc(Oc4nc(N)nc5[nH]cnc45)c3)nn2)[C@]2(C)[C@H](C)CC[C@]3(CCC(=O)[C@H]32)[C@@H](C)[C@@H]1O under Staphylococcus aureus had MIC of 0.12

Entry C=C[C@]1(C)C[C@@H](OC(=O)Cn2cc(-c3cncc(C(=O)Nc4ccc(OC)cc4)c3)nn2)[C@]2(C)[C@H](C)CC[C@]3(CCC(=O)[C@H]32)[C@@H](C)[C@@H]1O under Staphylococcus aureus had MIC of 0.12

Entry C=C[C@]1(C)C[C@@H](OC(=O)Cn2cc(-c3ccc(Cn4cnc5c(=O)[nH]cnc54)cc3)nn2)[C@]2(C)[C@H](C)CC[C@]3(CCC(=O)[C@H]32)[C@@H](C)[C@@H]1O under Staphylococcus aureus had MIC of 0.06

###

ASSAY_INFO: Metabolic stability in human liver microsomes assessed as half-life at 1 uM measured up to 30 mins by LC-MS/MS analysis
Format: ADME, Microsome
MEASURED_PARAMETER: half-life at 1 µM
Kindly report the value followed by its unit.

Recorded half-life at 1 µM, per entry:
1. C=C[C@]1(C)C[C@@H](OC(=O)Cn2cc(-c3cncc(NC(=O)c4ccc(OC)nc4)c3)nn2)[C@]2(C)[C@H](C)CC[C@]3(CCC(=O)[C@H]32)[C@@H](C)[C@@H]1O: 2.4 min
2. C=C[C@]1(C)C[C@@H](OC(=O)Cn2cc(-c3cncc(C(O)c4ccc5c(N)ncnn45)c3)nn2)[C@]2(C)[C@H](C)CC[C@]3(CCC(=O)[C@H]32)[C@@H](C)[C@@H]1O (stereo partly drawn): 5.4 min

Next item in the queue.
Record C=C[C@]1(C)C[C@@H](OC(=O)Cn2cc(-c3ccc(Nc4ncnc5[nH]cnc45)cc3)nn2)[C@]2(C)[C@H](C)CC[C@]3(CCC(=O)[C@H]32)[C@@H](C)[C@@H]1O . Reported half-life at 1 µM: 23.4 min

###

ASSAY_INFO: Metabolic stability in human liver microsomes assessed as half-life at 1 uM measured up to 30 mins by LC-MS/MS analysis
Type: ADME, Microsome
MEASURED_PARAMETER: half-life at 1 µM (min)
Express it in min; write the number only.

1. C=C[C@]1(C)C[C@@H](OC(=O)Cn2cc(-c3ccc(Cn4ccc5c(N)ncnc54)c(OC)c3)nn2)[C@]2(C)[C@H](C)CC[C@]3(CCC(=O)[C@H]32)[C@@H](C)[C@@H]1O: 1.2
2. C=C[C@]1(C)C[C@@H](OC(=O)Cn2cc(-c3cncc(NC(=O)c4ccc(OC)cc4)c3)nn2)[C@]2(C)[C@H](C)CC[C@]3(CCC(=O)[C@H]32)[C@@H](C)[C@@H]1O: 1.7
3. C=C[C@]1(C)C[C@@H](OC(=O)Cn2cc(-c3cccc(Nc4ncnc5[nH]cnc45)c3)nn2)[C@]2(C)[C@H](C)CC[C@]3(CCC(=O)[C@H]32)[C@@H](C)[C@@H]1O: 2

Record C=C[C@]1(C)C[C@@H](OC(=O)Cn2cc(-c3cncc(NC(=O)c4cnc(OC)cn4)c3)nn2)[C@]2(C)[C@H](C)CC[C@]3(CCC(=O)[C@H]32)[C@@H](C)[C@@H]1O . Reported half-life at 1 µM: 5.7

Record C=C[C@]1(C)C[C@@H](OC(=O)Cn2cc(-c3cccc(C(=O)Nc4ncnc5[nH]cnc45)c3)nn2)[C@]2(C)[C@H](C)CC[C@]3(CCC(=O)[C@H]32)[C@@H](C)[C@@H]1O . Reported half-life at 1 µM: 2.7

###

ASSAY_INFO: Metabolic stability in human liver microsomes assessed as half-life at 1 uM measured up to 30 mins by LC-MS/MS analysis
Format: ADME, Microsome
MEASURED_PARAMETER: half-life at 1 µM (min)
Express it in min; write the number only.

Recorded half-life at 1 µM, per entry:
1) C=C[C@]1(C)C[C@@H](OC(=O)Cn2cc(-c3ccc(CNc4cc(N)ncn4)cc3)nn2)[C@]2(C)[C@H](C)CC[C@]3(CCC(=O)[C@H]32)[C@@H](C)[C@@H]1O: 1.3
2) C=C[C@]1(C)C[C@@H](OC(=O)Cn2cc(-c3cncc(C(=O)Nc4ncnc5[nH]cnc45)c3)nn2)[C@]2(C)[C@H](C)CC[C@]3(CCC(=O)[C@H]32)[C@@H](C)[C@@H]1O: 3.6
3) C=C[C@]1(C)C[C@@H](OC(=O)CS[C@@H]2C[C@H]3CC[C@@H](C2)N3C)[C@]2(C)[C@H](C)CC[C@]3(CCC(=O)[C@H]32)[C@@H](C)[C@@H]1O [RETAPAMULIN]: 2.4
4) C=C[C@]1(C)C[C@@H](OC(=O)Cn2cc(-c3cncc(C(=O)Nc4ccc(OC)nc4)c3)nn2)[C@]2(C)[C@H](C)CC[C@]3(CCC(=O)[C@H]32)[C@@H](C)[C@@H]1O: 2.3
5) C=C[C@]1(C)C[C@@H](OC(=O)Cn2cc(-c3ccc(C(O)c4ccc5c(N)ncnn45)nc3)nn2)[C@]2(C)[C@H](C)CC[C@]3(CCC(=O)[C@H]32)[C@@H](C)[C@@H]1O (stereo partly specified): 1.3
6) C=C[C@]1(C)C[C@@H](OC(=O)Cn2cc(-c3ccc(Cn4ccnc4)nc3)nn2)[C@]2(C)[C@H](C)CC[C@]3(CCC(=O)[C@H]32)[C@@H](C)[C@@H]1O: 6.2
7) C=C[C@]1(C)C[C@@H](OC(=O)Cn2cc(-c3cccc(Nc4cc(N)ncn4)c3)nn2)[C@]2(C)[C@H](C)CC[C@]3(CCC(=O)[C@H]32)[C@@H](C)[C@@H]1O: 3.9
8) C=C[C@]1(C)C[C@@H](OC(=O)Cn2cc(-c3ccc(C(O)c4ccc5c(N)ncnn45)cn3)nn2)[C@]2(C)[C@H](C)CC[C@]3(CCC(=O)[C@H]32)[C@@H](C)[C@@H]1O (stereo partly specified): 1.4
9) C=C[C@]1(C)C[C@@H](OC(=O)Cn2cc(-c3ccc(Cn4ccc5c(N)ncnc54)nc3)nn2)[C@]2(C)[C@H](C)CC[C@]3(CCC(=O)[C@H]32)[C@@H](C)[C@@H]1O: 1.9

Record C=C[C@]1(C)C[C@@H](OC(=O)Cn2cc(-c3ccc(C(=O)c4ccc5c(N)ncnn45)cn3)nn2)[C@]2(C)[C@H](C)CC[C@]3(CCC(=O)[C@H]32)[C@@H](C)[C@@H]1O . Reported half-life at 1 µM: 1.7
